- Test system: Rattus norvegicus
- Assay explanation: Hypotensive activity in anaesthetized albino rat assessed as reduction of adrenaline-induced increase in diastolic arterial blood pressure at 3 ug/kg, iv administered 30 mins before adrenaline challenge measured after 30 mins relative to control
- Assay type: functional
- Set-up: scale not given: the % may be the effect or the level left
Parameter: Activity (%)
Write down the numeric answer in % and omit the unit.

The compound CC1(C)CC(=O)C2=C(C1)N(c1ccc(Cl)cc1)CN(c1ccccc1)C2 on Rattus norvegicus: Activity was -9

Field Activity (Rattus norvegicus), entry CC1(C)CC(=O)C2=C(C1)N(c1ccc(Cl)cc1)CN(c1ccc(OCC(=O)N/N=C/c3ccccc3)cc1)C2 : -6

Bench note, Rattus norvegicus: COc1cc2nc(N3CCN(C(=O)c4ccco4)CC3)nc(N)c2cc1OC [PRAZOSIN] , Activity reads -8

Let me check: Cc1ccc(/C=N/NC(=O)COc2ccc(N3CC4=C(CC(C)(C)CC4=O)N(c4ccc(Cl)cc4)C3)cc2)cc1 , system Rattus norvegicus, measured Activity is -19

Readout Activity for Cc1ccc(N2CC3=C(CC(C)(C)CC3=O)N(c3ccc(Cl)cc3)C2)cc1 , test system Rattus norvegicus, was -8

Others:
Per the reported Rattus norvegicus data, CC1(C)CC(=O)C2=C(C1)N(c1ccc(Cl)cc1)CN(c1ccc(OCC(=O)N/N=C/c3ccc([N+](=O)[O-])cc3)cc1)C2 has Activity of -9

The observed Activity for CC1(C)CC(=O)C2=C(C1)N(c1ccc(Cl)cc1)CN(c1ccc(O)cc1)C2 when tested with Rattus norvegicus stands at 10

Measured values drawn from ChEMBL document CHEMBL1287656 for this set.
